B1: 5KPH (parent)
chain: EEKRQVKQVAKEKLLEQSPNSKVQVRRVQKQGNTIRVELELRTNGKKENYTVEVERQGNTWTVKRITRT

- Variants of: B1
- METHOD: folding stability dG (cDNA display proteolysis); higher = more stable
- EXPERIMENTAL_CONTEXT: PBS, room temperature
PROPERTY_LABEL: folding stability dG (kcal/mol)
Express your answer in kcal/mol, writing the number without its unit.

Recorded result, `V9G` , folding stability dG: 1.81

Recorded result, `V54T` , folding stability dG: 2.23

Recorded result, `R36Q` , folding stability dG: 3.75

Recorded result, `K30C` , folding stability dG: 3.69

Recorded result, `V37K` , folding stability dG: 0.177

Recorded result, `Q31D` , folding stability dG: 3.89

Recorded result, `T34F` , folding stability dG: 3.81

Recorded result, `N59D` , folding stability dG: 4.01

Recorded result, `V25P` , folding stability dG: 2.2

Recorded result, `V6K` , folding stability dG: 2.05

Recorded result, `V23F` , folding stability dG: 2.6

Recorded result, `E16C` , folding stability dG: 3.27

Recorded result, `E38A` , folding stability dG: 3.62

Recorded result, `A10Y` , folding stability dG: 1.96

Recorded result, `K64P` , folding stability dG: 2.28

Recorded result, `I66N` , folding stability dG: 1.2

Recorded result, `S18W` , folding stability dG: 4.39

Recorded result, `G58W` , folding stability dG: 3

Recorded result, `R4I` , folding stability dG: 3.04

Recorded result, `R36P` , folding stability dG: 0.344

Recorded result, `E53C` , folding stability dG: 3.34

Recorded result, `R36I` , folding stability dG: 4.34

Recorded result, `E55Y` , folding stability dG: 3.92

Recorded result, `Q29Y` , folding stability dG: 4.51

Recorded result, `G45P` , folding stability dG: 1.96

Recorded result, `V52I` , folding stability dG: 3.65

Recorded result, `A10S` , folding stability dG: 2.92

Recorded result, `R65K` , folding stability dG: 4.01

Recorded result, `K3C` , folding stability dG: 4.21

Recorded result, `V63G` , folding stability dG: 1.35

Recorded result, `E12Q` , folding stability dG: 4.02

Recorded result, `T62H` , folding stability dG: 3.93

Recorded result, `R27V` , folding stability dG: 3.12

Recorded result, `S18H` , folding stability dG: 4.66
